target: T1, full-length human E6AP (C-terminal TEV-6xHis-Avi) (human, UniProt Q05086 1-875, biotin on the Avi tag (BirA biotin-protein ligase) in the SPR experiments); assay: SPR; conditions: both partners purified
T1 construct: also called UBE3A; biotin-E6AP
T1 sequence (Q05086 whole entry): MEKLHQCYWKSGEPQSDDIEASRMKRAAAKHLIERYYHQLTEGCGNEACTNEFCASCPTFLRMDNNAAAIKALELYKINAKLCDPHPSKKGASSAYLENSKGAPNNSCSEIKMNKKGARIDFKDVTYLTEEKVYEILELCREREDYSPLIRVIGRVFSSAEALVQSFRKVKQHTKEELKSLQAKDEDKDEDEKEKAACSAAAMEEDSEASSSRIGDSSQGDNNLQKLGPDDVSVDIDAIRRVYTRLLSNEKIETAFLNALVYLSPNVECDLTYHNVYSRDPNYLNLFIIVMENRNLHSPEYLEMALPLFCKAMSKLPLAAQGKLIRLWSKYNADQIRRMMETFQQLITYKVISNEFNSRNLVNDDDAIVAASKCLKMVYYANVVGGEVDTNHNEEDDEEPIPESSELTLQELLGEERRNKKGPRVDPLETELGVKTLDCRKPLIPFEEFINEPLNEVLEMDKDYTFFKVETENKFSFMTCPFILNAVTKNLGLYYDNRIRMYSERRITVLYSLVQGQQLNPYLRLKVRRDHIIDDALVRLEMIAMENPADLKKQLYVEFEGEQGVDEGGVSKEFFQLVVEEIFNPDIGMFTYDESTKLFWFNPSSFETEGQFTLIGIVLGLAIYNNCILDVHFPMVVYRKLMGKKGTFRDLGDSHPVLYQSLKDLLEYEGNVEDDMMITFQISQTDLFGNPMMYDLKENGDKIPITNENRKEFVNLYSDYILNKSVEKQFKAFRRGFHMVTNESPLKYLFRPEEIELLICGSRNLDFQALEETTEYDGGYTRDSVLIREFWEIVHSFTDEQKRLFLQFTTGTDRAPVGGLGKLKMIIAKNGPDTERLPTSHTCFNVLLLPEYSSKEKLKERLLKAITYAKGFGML
quantity-measured: Kd (nM)
All answers are understood in nM, so give the number only.

Input line: Which Kd reading was recorded for the binder MBP-16E6(4C4S) R62A (natural protein, Mutant of m2; source: E. coli BL21(DE3), purified (MBPTrap, SEC); not shown: MBP, N-terminal, kept) MHQKRTAMFQDPQERPRKLPQLCTELQTTIHDIILECVYCKQQLLRREVYDFAFRDLCIVYADGNPYAVCDKCLKFYSKISEYRHYSYSLYGTTLEQQYNKPLSDLLIRCINCQKPLSPEEKQRHLDKKQRFHNIRGRWTGRCMSCSRSSRTRRETQL ?
Output line: 2.2

Input line: Quick one: MBP-16E6(4C4S) R84A (natural protein, Mutant of m2; source: E. coli BL21(DE3), purified (MBPTrap, SEC); not shown: MBP, N-terminal, kept) MHQKRTAMFQDPQERPRKLPQLCTELQTTIHDIILECVYCKQQLLRREVYDFAFRDLCIVYRDGNPYAVCDKCLKFYSKISEYAHYSYSLYGTTLEQQYNKPLSDLLIRCINCQKPLSPEEKQRHLDKKQRFHNIRGRWTGRCMSCSRSSRTRRETQL
Output line: 34.4

Input line: Quick one: MBP-16E6(4C4S) S89A (natural protein, Mutant of m2; source: E. coli BL21(DE3), purified (MBPTrap, SEC); not shown: MBP, N-terminal, kept) MHQKRTAMFQDPQERPRKLPQLCTELQTTIHDIILECVYCKQQLLRREVYDFAFRDLCIVYRDGNPYAVCDKCLKFYSKISEYRHYSYALYGTTLEQQYNKPLSDLLIRCINCQKPLSPEEKQRHLDKKQRFHNIRGRWTGRCMSCSRSSRTRRETQL
Output line: 1.71

Input line: Quick one: MBP-16E6(4C4S) Y86A (natural protein, Mutant of m2; source: E. coli BL21(DE3), purified (MBPTrap, SEC); not shown: MBP, N-terminal, kept) MHQKRTAMFQDPQERPRKLPQLCTELQTTIHDIILECVYCKQQLLRREVYDFAFRDLCIVYRDGNPYAVCDKCLKFYSKISEYRHASYSLYGTTLEQQYNKPLSDLLIRCINCQKPLSPEEKQRHLDKKQRFHNIRGRWTGRCMSCSRSSRTRRETQL
Output line: 6.3

Input line: Quick one: MBP-16E6(4C4S) Y88A (natural protein, Mutant of m2; source: E. coli BL21(DE3), purified (MBPTrap, SEC); not shown: MBP, N-terminal, kept) MHQKRTAMFQDPQERPRKLPQLCTELQTTIHDIILECVYCKQQLLRREVYDFAFRDLCIVYRDGNPYAVCDKCLKFYSKISEYRHYSASLYGTTLEQQYNKPLSDLLIRCINCQKPLSPEEKQRHLDKKQRFHNIRGRWTGRCMSCSRSSRTRRETQL
Output line: 5.4
